biological target: T1, ACKR3 N127S-YFP (UniProt P25106 1-362, N127S); test: radioligand binding; HEK293 cells expressing ACKR3-YFP or mutants, pretreated 5 min at 37 °C with 100 μM phenylarsine oxide; 50 pM 125I-CXCL12 tracer in 50 mM HEPES pH 7.4, 5 mM MgCl2, 1 mM CaCl2, 0.2% BSA, with or without unlabeled CXCL12 or CXCL11, 30 min at 37 °C; bound label counted in a γ counter; IC50 taken as proxy for ligand affinity; conditions: one partner purified
T1 construct: ACKR3 (CXCR7) with N127S (Ballesteros-Weinstein 3.35), made by PCR in ACKR3-YFP; also called N127^3.35S; source: HEK293, transiently transfected (polyethyleneimine), on or in cells; not shown: YFP, C-terminal, kept
T1 sequence (P25106 whole entry N127S): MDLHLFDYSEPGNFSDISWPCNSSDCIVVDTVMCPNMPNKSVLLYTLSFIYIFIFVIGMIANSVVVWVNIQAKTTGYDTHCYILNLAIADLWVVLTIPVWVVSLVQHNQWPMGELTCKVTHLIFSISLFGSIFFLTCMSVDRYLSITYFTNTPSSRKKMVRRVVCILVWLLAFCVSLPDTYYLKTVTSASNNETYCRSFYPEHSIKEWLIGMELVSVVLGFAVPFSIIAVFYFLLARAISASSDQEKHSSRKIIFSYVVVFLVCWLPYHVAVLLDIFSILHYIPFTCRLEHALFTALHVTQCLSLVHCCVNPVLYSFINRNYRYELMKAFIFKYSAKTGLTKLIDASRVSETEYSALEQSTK
QUANTITY KIND: IC50 (nM)
One number for each entry, in nM.

Quote IC50 reported for CXCL11 (unlabeled recombinant chemokine) (ligand, human, UniProt O14625 22-94, looked up, chemokine CXCL11 (I-TAC); called human CXCL11 in the text on scavenging by MEFs; also called I-TAC; unlabeled CXCL11; source: recombinant; gift from Amanda Nevins and Brian Volkman or from PeproTech Inc) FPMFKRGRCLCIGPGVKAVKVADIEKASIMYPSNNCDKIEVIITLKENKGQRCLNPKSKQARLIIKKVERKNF please.
3.7
